# Tested on: HL60
# assay-name: MTT assay, antiproliferative activity against HL60 cells
# Type: cell-based
# particulars: Homo sapiens, HL-60, 72 h, mean of at least two determinations
Lab note: anything with IC50 below 1000 nM is marked MET; values at 1000 nM or higher are marked NOT MET.

Illustrative cases are given below, each with its answer.
INSERT INTO measurements (molecule, target_or_system, category_label) VALUES
  ('Cc1ccc(S(=O)(=O)c2nc3ccccc3nc2N2CCNC(C)C2)cc1 (centres unmarked) [Compound 25]', 'HL60', 'MET'),
  ('Cc1ccc(S(=O)(=O)c2nc3ccccc3nc2N2CCN(C)CC2)cc1 [Compound 15]', 'HL60', 'MET'),
  ('CN1CCN(c2nc3ccccc3nc2S(=O)(=O)c2ccccc2)CC1 [Compound 14]', 'HL60', 'MET'),
  ('O=C(c1ccc(Cl)cc1)N1CCN(c2nc3ccccc3nc2S(=O)(=O)c2ccc(F)cc2)CC1 [Compound 38]', 'HL60', 'NOT MET'),
  ('Cc1ccc(S(=O)(=O)c2nc3ccccc3nc2N2CCN(S(=O)(=O)c3ccc(C)cc3)CC2)cc1 [Compound 45]', 'HL60', 'NOT MET'),
  ('O=S(=O)(c1ccc(F)cc1)c1nc2ccccc2nc1N1CCNCC1 [Compound 23]', 'HL60', 'NOT MET'),
  ('NC(=O)C1CCN(c2nc3ccccc3nc2S(=O)(=O)c2ccc(Br)cc2)CC1 [Compound 7]', 'HL60', 'MET');

[ask] Consider Cc1ccc(S(=O)(=O)N2CCN(c3nc4ccccc4nc3S(=O)(=O)c3ccc(Br)cc3)CC2)cc1 [Compound 47] . Does its IC50 lie strictly below 1000 nM?
[reply] NOT MET

----------
Overview of recorded pIC50 for various molecules
# Tested on: HCT116
# assay-name: MTT assay, antiproliferative activity against HCT116 cells
# Assay type: cell-based
# particulars: Homo sapiens, HCT-116, 72 h, mean of at least two determinations
// field semantics: pIC50 = negative decimal log of concentration (mol/L)

Example entries begin here.
INSERT INTO measurements (molecule, observed_measurement) VALUES
  ('CN1CCN(c2nc3ccccc3nc2S(=O)(=O)c2ccc(F)cc2)CC1 [Compound 18]', 5.09),
  ('COc1ccc(S(=O)(=O)c2nc3ccccc3nc2N2CCN(CCCN3CCOCC3)CC2)cc1 [Compound 51]', 5.59),
  ('CC1CN(c2nc3ccccc3nc2S(=O)(=O)c2ccc(F)cc2)CCN1 (stereo not drawn) [Compound 28]', 5.66),
  ('O=S(=O)(c1ccc(Br)cc1)c1nc2ccccc2nc1N1CCN(CCCN2CCOCC2)CC1 [Compound 52]', 6.66),
  ('COc1ccc(S(=O)(=O)c2nc3ccccc3nc2N2CCC(C(N)=O)CC2)cc1 [Compound 6]', 5.59),
  ('Cc1ccc(S(=O)(=O)c2nc3ccccc3nc2N2CCC(C(N)=O)CC2)cc1 [Compound 5]', 5.92),
  ('O=C(c1ccccc1)N1CCN(c2nc3ccccc3nc2S(=O)(=O)c2ccc(F)cc2)CC1 [Compound 33]', 5.05),
  ('COc1ccc(S(=O)(=O)c2nc3ccccc3nc2N2CCNC(C)C2)cc1 (stereo not drawn) [Compound 26]', 6.27),
  ('NC(=O)C1CCN(c2nc3ccccc3nc2S(=O)(=O)c2ccccc2)CC1 [Compound 4]', 5.80),
  ('O=C(c1ccc(Cl)cc1)N1CCN(c2nc3ccccc3nc2S(=O)(=O)c2ccccc2)CC1 [Compound 34]', 4.60);

[ask] Requested field: pIC50. Item: COc1ccc(S(=O)(=O)c2nc3ccccc3nc2N2CCNCC2)cc1 [Compound 21]
[reply] 6.20

[ask] Param item = O=C(c1ccc(Cl)cc1)N1CCN(c2nc3ccccc3nc2S(=O)(=O)c2ccc(F)cc2)CC1 [Compound 38] ; retrieve measured pIC50.
[reply] 5.06

[ask] Which value of pIC50 has been reported for O=C(c1ccccc1)N1CCN(c2nc3ccccc3nc2S(=O)(=O)c2ccc(Br)cc2)CC1 [Compound 32] in the records?
[reply] 5.00

[ask] Query (molecule): NC(=O)C1CCN(c2nc3ccccc3nc2S(=O)(=O)c2ccc(Br)cc2)CC1 [Compound 7] ; field requested: pIC50
[reply] 5.79

[ask] Report pIC50 for Cc1ccc(S(=O)(=O)c2nc3ccccc3nc2N2CCN(C)CC2)cc1 [Compound 15] please.
[reply] 5.77
